- target_under_test: human recombinant ENPP1 enzymes (Homo sapiens)
- method_notes: ENPP1 Enzyme Assay with cGAMP Substrate (AMP-Glo)
- protocol_conditions: human recombinant ENPP1, cGAMP 5 μM, 37° C. 90 minutes, AMP-Glo luminescence; read-out: Enzymatic activity (IC50)
Structures can show the parent of a compound that is named as a salt.
property: IC50

{"compound": "COc1ccc2c(c1)nnn2C1CCC(CN)CC1 (stereo not drawn)", "property": "IC50", "value_reported": "> 10 µM"}
{"compound": "COc1ccc2c(c1)nnn2C12CC(CN)(C1)C2", "property": "IC50", "value_reported": "> 10 µM"}
{"compound": "COc1ccc2c(c1)nnn2-c1ccc([C@H](C)N)cc1 [Example 14, Hydrochloride]", "property": "IC50", "value_reported": "< 1 µM"}
{"compound": "COc1ccc2c(c1)nnn2-c1ccc(CNS(=O)(=O)c2ccc(C)cc2)cc1F", "property": "IC50", "value_reported": "> 10 µM"}
{"compound": "COc1cc2nnn(-c3cc(F)c(CN)cc3F)c2cc1OC", "property": "IC50", "value_reported": "> 10 µM"}
{"compound": "COc1cc2nnn(-c3ccc(CN)cc3)c2cc1OC [Example 10, Hydrochloride]", "property": "IC50", "value_reported": "1 to 10 µM"}
{"compound": "COc1ccc2c(c1)nnn2-c1cccc(CNS(N)(=O)=O)c1", "property": "IC50", "value_reported": "1 to 10 µM"}
{"compound": "COc1ccc2c(c1)nnn2-c1ccc([C@H](C)NS(N)(=O)=O)cc1", "property": "IC50", "value_reported": "< 1 µM"}
{"compound": "NS(=O)(=O)NCc1ccc(-n2nnc3ccccc32)c(F)c1", "property": "IC50", "value_reported": "< 1 µM"}

---

Measured IC50 of individual entries
- target_under_test: human recombinant ENPP1 enzymes (Homo sapiens, UniProt P22413)
- Sequence (P22413 whole entry): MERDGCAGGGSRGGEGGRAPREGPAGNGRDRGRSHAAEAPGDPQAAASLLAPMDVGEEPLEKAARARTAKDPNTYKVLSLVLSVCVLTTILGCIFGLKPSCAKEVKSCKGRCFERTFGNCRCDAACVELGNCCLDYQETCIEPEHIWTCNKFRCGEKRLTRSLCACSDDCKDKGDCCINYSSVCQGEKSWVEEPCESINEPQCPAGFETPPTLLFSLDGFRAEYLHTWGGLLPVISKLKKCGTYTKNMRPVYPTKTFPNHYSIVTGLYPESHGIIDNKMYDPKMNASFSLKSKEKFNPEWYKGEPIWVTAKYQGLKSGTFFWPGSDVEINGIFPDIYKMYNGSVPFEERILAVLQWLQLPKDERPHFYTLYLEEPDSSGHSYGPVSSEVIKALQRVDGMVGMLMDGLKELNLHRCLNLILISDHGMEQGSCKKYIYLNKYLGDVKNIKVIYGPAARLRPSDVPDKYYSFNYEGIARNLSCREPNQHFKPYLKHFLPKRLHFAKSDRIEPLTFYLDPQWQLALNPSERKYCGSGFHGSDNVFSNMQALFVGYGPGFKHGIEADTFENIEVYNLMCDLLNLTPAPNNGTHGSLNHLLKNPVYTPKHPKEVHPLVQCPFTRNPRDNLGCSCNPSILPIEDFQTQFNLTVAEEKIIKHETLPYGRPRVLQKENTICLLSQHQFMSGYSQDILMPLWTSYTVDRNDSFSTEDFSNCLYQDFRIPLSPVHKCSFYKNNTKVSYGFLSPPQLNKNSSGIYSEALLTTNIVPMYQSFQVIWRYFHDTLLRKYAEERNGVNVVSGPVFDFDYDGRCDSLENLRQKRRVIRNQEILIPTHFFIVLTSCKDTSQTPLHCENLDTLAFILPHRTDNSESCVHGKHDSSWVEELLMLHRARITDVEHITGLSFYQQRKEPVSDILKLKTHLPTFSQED
- method_notes: ENPP1 Enzyme Assay with cGAMP Substrate (AMP-Glo)
- protocol_conditions: human recombinant ENPP1, cGAMP 5 μM, 37° C. 90 minutes, AMP-Glo luminescence; read-out: Enzymatic activity (IC50)
Counter-ions that a name gives are not always drawn.

{"compound": "COc1ccc2c(c1)nnn2Cc1ccc(CNS(N)(=O)=O)cc1 [Example 105, Hydrochloride]", "IC50": "> 10 µM"}
{"compound": "COc1ccc2nn(Cc3ccc(CNS(N)(=O)=O)cc3)nc2c1 [Example 110, Hydrochloride]", "IC50": "1 to 10 µM"}
{"compound": "Cc1ccc2c(c1)nnn2-c1ccc(CNS(N)(=O)=O)cc1F [Example 75]", "IC50": "> 10 µM"}
{"compound": "COc1cc(OC)c2nnn(-c3ccc(CNS(N)(=O)=O)cc3)c2c1 [Example 54]", "IC50": "1 to 10 µM"}
{"compound": "COc1cccc2c1nnn2-c1ccc(CNS(N)(=O)=O)cc1 [Example 50]", "IC50": "< 1 µM"}

---

- target_under_test: human recombinant ENPP1 enzymes (Homo sapiens, UniProt P22413)
- Construct: purchased R & D systems
- method_notes: ENPP1 Enzyme Assay with cGAMP Substrate (AMP-Glo)
- Format: biochemical
- protocol_conditions: human recombinant ENPP1, cGAMP 5 μM, 37° C. 90 minutes, AMP-Glo luminescence; read-out: Enzymatic activity (IC50)
pIC50: −log10 of the molar value. Structures can show the parent of a compound that is named as a salt.

{"compound": "NS(=O)(=O)NCc1ccc(-n2nnc3cc(OC(F)(F)F)ccc32)c(F)c1", "pIC50": "< 5.00"}
{"compound": "NCc1ccc(-n2nnc3ccccc32)cc1 [Example 5, Hydrochloride]", "pIC50": "> 6.00"}
{"compound": "COc1ccc2c(c1)nnn2-c1ccc(CNS(C)(=O)=O)cc1F", "pIC50": "< 5.00"}
{"compound": "COc1ccc2c(c1)nnn2-c1ccc2c(c1)CNCC2 [Example 25, Hydrochloride]", "pIC50": "< 5.00"}
{"compound": "COc1ccc2c(c1)nnn2C1CCNCC1 [Example 1, Hydrochloride]", "pIC50": "< 5.00"}
{"compound": "COc1ccc2c(c1)nnn2C1CCN(CCS(=O)(=O)F)CC1", "pIC50": "< 5.00"}
{"compound": "COc1cc2nnn(-c3ccc4c(c3)CNC4)c2cc1OC [Example 29, Hydrochloride]", "pIC50": "< 5.00"}
{"compound": "CNCc1ccc(-n2nnc3cc(OC)ccc32)cc1 [Example 12, Hydrochloride]", "pIC50": "< 5.00"}
{"compound": "COc1ccc2c(c1)nnn2-c1ccc(CNS(N)(=O)=O)nc1", "pIC50": "> 6.00"}
{"compound": "COc1ccc2c(c1)nnn2CC1CCN(S(N)(=O)=O)CC1", "pIC50": "> 6.00"}
{"compound": "NS(=O)(=O)NCc1cc(F)c(-n2nnc3ccccc32)c(F)c1", "pIC50": "> 6.00"}
{"compound": "COc1ccc2c(c1)nnn2-c1ccc2c(c1)CCN(S(N)(=O)=O)C2", "pIC50": "> 6.00"}
{"compound": "COc1ccc2c(c1)nnn2-c1ccc2c(c1)CN(S(N)(=O)=O)CCC2", "pIC50": "< 5.00"}
{"compound": "COc1ccc2c(c1)nnn2-c1cccc(NS(N)(=O)=O)c1", "pIC50": "5.00 to 6.00"}
{"compound": "COc1ccc2c(c1)nnn2-c1ccc2c(c1)CN(S(N)(=O)=O)CC2", "pIC50": "> 6.00"}
{"compound": "COc1ccc2c(c1)nnn2-c1ccc2c(c1)CC(NS(N)(=O)=O)C2 (stereo not shown)", "pIC50": "> 6.00"}
{"compound": "COc1ccc2c(c1)nnn2-c1ccc(CNS(N)(=O)=O)c(F)c1", "pIC50": "> 6.00"}
{"compound": "COc1ccc2c(c1)nnn2-c1ccc(CCNS(N)(=O)=O)cc1 [Example 73, Hydrochloride]", "pIC50": "> 6.00"}
{"compound": "COc1ccc2c(c1)nnn2-c1ccc(CNS(N)(=O)=O)s1", "pIC50": "< 5.00"}
{"compound": "COc1ccc2c(c1)nnn2-c1ccc(P(=O)(O)O)cc1", "pIC50": "< 5.00"}
{"compound": "COc1ccc2c(c1)nnn2-c1ccc(CNS(N)(=O)=O)cc1F", "pIC50": "> 6.00"}
{"compound": "NS(=O)(=O)NCc1ccc(-n2nnc3cc(OC(F)(F)F)ccc32)cc1", "pIC50": "< 5.00"}
{"compound": "COc1cc2nnn(-c3ccc(CNS(N)(=O)=O)cc3)c2cc1F", "pIC50": "> 6.00"}
{"compound": "COc1ccc2c(c1)nnn2-c1ccc(CN(C2CC2)S(N)(=O)=O)cc1", "pIC50": "> 6.00"}
{"compound": "COc1ccc2c(c1)nnn2-c1c(F)cc(CNS(N)(=O)=O)cc1F", "pIC50": "> 6.00"}
{"compound": "COc1ccc2c(c1)nnn2-c1cc2c(cc1F)CNCC2 [Example 26, Hydrochloride]", "pIC50": "< 5.00"}
{"compound": "COc1ccc2c(c1)nnn2-c1cc2c(cc1F)CN(S(N)(=O)=O)CC2", "pIC50": "> 6.00"}
{"compound": "COc1ccc2nn(Cc3ccc(NS(N)(=O)=O)cc3)nc2c1 [Example 109, Hydrochloride]", "pIC50": "5.00 to 6.00"}
{"compound": "COc1cc2nnn(-c3ccc(CNS(N)(=O)=O)cc3F)c2cc1F", "pIC50": "> 6.00"}
{"compound": "NS(=O)(=O)NCc1ccc(-n2nnc3cc(O)ccc32)c(F)c1", "pIC50": "> 6.00"}
{"compound": "COc1ccc2nnn(-c3ccc(CNS(N)(=O)=O)cc3)c2c1", "pIC50": "> 6.00"}
{"compound": "COc1ccc2c(c1)nnn2-c1cccc(CCN)c1 [Example 11, Hydrochloride]", "pIC50": "< 5.00"}
{"compound": "COc1ccc2c(c1)nnn2C1CCN(S(N)(=O)=O)CC1", "pIC50": "< 5.00"}
{"compound": "COc1cc2nnn(-c3ccc(CNS(N)(=O)=O)cc3F)c2cc1OC", "pIC50": "> 6.00"}
{"compound": "COc1ccc2c(c1)nnn2-c1ccc(CNS(N)(=O)=O)cc1Cl", "pIC50": "> 6.00"}
{"compound": "COc1ccc2c(c1)nnn2-c1cc(F)c(CN)c(F)c1", "pIC50": "< 5.00"}
{"compound": "COc1ccc2nnn(-c3ccc(CN)cc3)c2c1 [Example 7, Hydrochloride]", "pIC50": "< 5.00"}

---

- target_under_test: human recombinant ENPP1 enzymes (Homo sapiens)
- method_notes: ENPP1 Enzyme Assay with cGAMP Substrate (AMP-Glo)
- protocol_conditions: human recombinant ENPP1, cGAMP 5 μM, 37° C. 90 minutes, AMP-Glo luminescence; read-out: Enzymatic activity (IC50)
pIC50: −log10 of the molar value. Where a name gives a salt, the structure may show the parent alone.
Measured pIC50 of individual entries

{"compound": "CC(C)Oc1ccc2c(c1)nnn2-c1ccc(CN)cc1F [Example 20]", "pIC50": "< 5.00"}
{"compound": "CC(F)(F)c1ccc2c(c1)nnn2-c1ccc(CN)cc1F [Example 22]", "pIC50": "< 5.00"}
{"compound": "NCc1ccc(-n2nnc3cc(OC(F)F)ccc32)c(F)c1 [Example 24]", "pIC50": "< 5.00"}
{"compound": "COc1cc2nnn(-c3ccc4c(c3)CC(NS(N)(=O)=O)C4)c2cc1OC (stereo not shown) [Example 103]", "pIC50": "> 6.00"}
{"compound": "COc1ccc2c(c1)nnn2-c1cccc(CCNS(N)(=O)=O)c1 [Example 72]", "pIC50": "> 6.00"}
{"compound": "COc1ccc2c(c1)nnn2C1CCC(CNS(N)(=O)=O)C1 (stereo not shown) [Example 41]", "pIC50": "> 6.00"}
{"compound": "COc1ccc2c(c1)nnn2-c1ccc(CP(=O)(O)O)cc1 [Example 119]", "pIC50": "> 6.00"}
{"compound": "COc1ccc2c(c1)nnn2-c1ccc(CN(C)S(N)(=O)=O)cc1F [Example 81]", "pIC50": "> 6.00"}
{"compound": "CC(C)Oc1ccc2c(c1)nnn2-c1ccc(CNS(N)(=O)=O)cc1F [Example 77]", "pIC50": "< 5.00"}
{"compound": "COc1ccc2c(c1)nnn2-c1ccc(CN(C)S(N)(=O)=O)cc1 [Example 80]", "pIC50": "> 6.00"}
{"compound": "CCOP(=O)(NCc1ccc(-n2nnc3cc(OC)ccc32)c(F)c1)OCC [Example 117]", "pIC50": "< 5.00"}
{"compound": "COc1cc2nnn(-c3ccc(CNS(N)(=O)=O)cc3F)c2cc1C [Example 70]", "pIC50": "> 6.00"}
{"compound": "COc1cccc2nnn(-c3ccc(CN)cc3)c12 [Example 8, Hydrochloride]", "pIC50": "< 5.00"}
{"compound": "NS(=O)(=O)NCc1ccc(-n2nnc3ccccc32)c(F)c1F [Example 57]", "pIC50": "> 6.00"}
{"compound": "NS(=O)(=O)NCc1ccc(-n2nnc3cc(C(F)(F)F)ccc32)cc1 [Example 84]", "pIC50": "< 5.00"}
{"compound": "COc1ccc2c(c1)nnn2-c1ccc(CN)cc1Cl [Example 15, Hydrochloride]", "pIC50": "> 6.00"}
{"compound": "COc1cc2nnn(-c3ccc(CNS(N)(=O)=O)cc3)c2cc1C [Example 69]", "pIC50": "5.00 to 6.00"}
{"compound": "COc1ccc2c(c1)nnn2-c1ccc(CNS(N)(=O)=O)cc1OC [Example 68]", "pIC50": "5.00 to 6.00"}
{"compound": "COc1ccc2c(c1)nnn2-c1cc(C)sc1CN [Example 31, Hydrochloride]", "pIC50": "< 5.00"}
